Tested system: GDP-bound KRAS wild-type protein (Homo sapiens, UniProt P01116)
Sequence (P01116 whole entry): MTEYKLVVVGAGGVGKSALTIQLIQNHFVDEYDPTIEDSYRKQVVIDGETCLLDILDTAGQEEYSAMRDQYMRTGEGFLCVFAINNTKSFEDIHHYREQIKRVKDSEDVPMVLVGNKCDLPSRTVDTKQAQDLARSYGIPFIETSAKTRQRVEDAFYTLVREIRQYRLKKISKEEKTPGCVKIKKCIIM
Test summary: Binding to KRAS by surface plasmon resonance (SPR), Single Cycle Kinetics
Experimental setup: SPR Single Cycle Kinetics, GDP-bound KRAS wild-type protein, 1:1 binding model; read-out: KRAS KD
*1 amine or outer side, *2 acyl side, *3 side chain or, on linkers, in order; H or OH if unused. Where a SMILES comes first, the peptide text is derived from it. Bridges are numbered along the chain shown (N, C = ends). [ ]: non-standard residue; d: D form. The star is where a group is joined. hPhe(3-Cl-4-CF3) = N[C@@H](CCc1ccc(C(F)(F)F)c(Cl)c1)C(=O)O; X45 = O=C([C@H](Cc1ccc(C(F)(F)F)cc1)N(CCCF)[*:1])[*:2]; NPrPhe(4-CF3) = CCCN[C@@H](Cc1ccc(C(F)(F)F)cc1)C(=O)O; NMeGly(cPent) = CN[C@H](C(=O)O)C1CCCC1; NMeD = CN[C@@H](CC(=O)O)C(=O)O; NMeL = CN[C@@H](CC(C)C)C(=O)O; Morpholide = C1CN(*)CCO1; NMeA = CN[C@@H](C)C(=O)O; Ac5c = NC1(C(=O)O)CCCC1; Aze = O=C(O)[C@@H]1CCN1; Sar = CNCC(=O)O
# pKd per entry
// returns pKd (minus log10 of molar concentration), number only

# count of solved cases: 4
{"columns": ["Compound", "Tested system", "pKd"],
 "data": [
  ["CCCN1C(=O)CN(C)C(=O)[C@@H]2CCCN2C(=O)[C@H]([C@@H](C)CC)NC(=O)[C@H](CC(C)C)N(C)C(=O)C[C@@H](C(=O)N2CCOCC2)N(C)C(=O)[C@H](C2CCCC2)N(C)C(=O)C2(CCCC2)NC(=O)[C@@H]2CCCN2C(=O)[C@H](CCc2ccc(C(F)(F)F)c(Cl)c2)NC(=O)CN(C)C(=O)[C@@H]1Cc1ccc(C(F)(F)F)cc1 [PP0165] ([NMeL]IP[Sar][NPrPhe(4-CF3)][Sar][hPhe(3-Cl-4-CF3)]P[Ac5c][NMeGly(cPent)][NMeD]-Morpholide; lactam N-11)", "GDP-bound KRAS wild-type protein (Homo sapiens, UniProt P01116)", 8.54],
  ["CC[C@H](C)[C@@H]1NC(=O)[C@H](CC(C)C)N(C)C(=O)C[C@@H](C(=O)N2CCOCC2)N(C)C(=O)[C@H](C2CCCC2)N(C)C(=O)C2(CCCC2)NC(=O)[C@@H]2CCCN2C(=O)[C@H](CCc2ccc(C(F)(F)F)c(Cl)c2)NC(=O)CN(C)C(=O)[C@H](Cc2ccc(C(F)(F)F)cc2)N(CCCF)C(=O)[C@@H]2CCN2C(=O)[C@H](C)N(C)C1=O [PP0525] ([NMeL]I[NMeA][Aze][X45][Sar][hPhe(3-Cl-4-CF3)]P[Ac5c][NMeGly(cPent)][NMeD]-Morpholide; lactam N-11)", "GDP-bound KRAS wild-type protein (Homo sapiens, UniProt P01116)", 9.85],
  ["CCC[C@H]1C(=O)N[C@@H]([C@@H](C)CC)C(=O)N(C)CC(=O)N(C)[C@H]2CCCCCN(C2=O)[C@@H](Cc2ccc(C(F)(F)F)cc2)C(=O)N(C)CC(=O)N[C@@H](CCc2cc(F)c(C(F)(F)F)c(F)c2)C(=O)N2C[C@H](OCC)C[C@H]2C(=O)NC2(CCC2)C(=O)N(C)[C@@H](C2CCCC2)C(=O)N(C)[C@H](C(=O)N2CCOCC2)CC(=O)N1C [PP0679]", "GDP-bound KRAS wild-type protein (Homo sapiens, UniProt P01116)", 9.24],
  ["C#CC[C@H]1C(=O)N[C@@H]([C@@H](C)CC)C(=O)N(C)CC(=O)N(C)[C@H]2C/C=C\\CCN(C2=O)[C@@H](Cc2ccc(C(F)(F)F)cc2)C(=O)N(C)CC(=O)N[C@@H](CCc2ccc(C(F)(F)F)c(Cl)c2)C(=O)N2C[C@H](OCC)C[C@H]2C(=O)NC2(CC(C)(C)C2)C(=O)N(C)[C@@H](C2CCCC2)C(=O)N(C)[C@H](C(=O)N(C)CC)CC(=O)N1C [PP2844]", "GDP-bound KRAS wild-type protein (Homo sapiens, UniProt P01116)", 9.92]
]}

Noted for CCO[C@@H]1C[C@H]2C(=O)NC3(CCC3)C(=O)N(C)[C@@H](C3CCCC3)C(=O)N(C)[C@H](C(=O)N(C)C)CC(=O)N(C)[C@@H](CC3CCCC3)C(=O)N[C@@H]([C@@H](C)CC)C(=O)N(C)CC(=O)N(C)[C@H]3C/C=C\CCN(C3=O)[C@@H](Cc3ccc(C)cc3)C(=O)N(C)CC(=O)N[C@@H](CCc3cc(C)c(C(F)F)c(Cl)c3)C(=O)N2C1 [PP2677] : its pKd reads 8.89
